Tested on: U2OS
Experiment: nuclei count in HPG assay relative to DMSO (% of DMSO); higher = more viable cells
Conditions: 1 µM; 24 h
Structures can show the parent of a compound that is named as a salt.
Metric name: nuclei count in HPG assay

molecule=Cc1c(C)c2c(c(C)c1O)CC[C@](C)(CN1CCN(c3cc(N4CCCC4)nc(N4CCCC4)n3)CC1)O2 measured_result=94.9
molecule=COc1ccccc1S(=O)(=O)Nc1ccc2c(c1)CN(C)C(=O)N2 measured_result=103
molecule=Cc1c(CN2CCN(C(=O)[C@H](C)O)CC2)sc2c(N3CCOCC3)nc(-c3cnc(N)nc3)nc12 measured_result=80.7
molecule="CCN(CC)CCOc1ccc(C(=C(Cl)c2ccccc2)c2ccccc2)cc1 [Clomiphene citrate (Z,E)]" measured_result=91.3
molecule=CCOc1cc(C(=O)Nc2ccc(Cl)c(-c3nc4ccccc4[nH]3)c2)cc(OCC)c1OCC measured_result=102
molecule=COc1cc2c(cc1C(F)(F)F)N(C(=O)Nc1cc(F)cc(-c3cccnc3)c1)CC2 measured_result=95.9
molecule=Cc1cc(CS(=O)(=O)c2ccccc2)cc(OCc2ccc(CN3CCC[C@@H]3CO)cc2)c1 measured_result=102
molecule="O=[N+]([O-])c1ccccc1S(=O)(=O)NCC1CCC(CNCC2CCc3ccccc3C2)CC1 (stereo not drawn) [NTNCB hydrochloride]" measured_result=95.8

---

We begin with a simple list: items and their reported mean HPG incorporation.
Tested on: U2OS
Assay: mean HPG incorporation (global translation) relative to DMSO (% of DMSO); higher = more protein synthesis
Conditions: 10 µM; 24 h
Counter-ions that a name gives are not always drawn.
Metric name: mean HPG incorporation

compound=COc1ccccc1S(=O)(=O)Nc1ccc2c(c1)CN(C)C(=O)N2 metric_name="mean HPG incorporation" measured_result=87
compound=Cc1cc(CS(=O)(=O)c2ccccc2)cc(OCc2ccc(CN3CCC[C@@H]3CO)cc2)c1 metric_name="mean HPG incorporation" measured_result=89.6
compound=COc1cc(NC(=O)c2ccccn2)ccc1Cl metric_name="mean HPG incorporation" measured_result=116
compound=CC(C)n1nc(-c2ccc3oc(N)nc3c2)c2c(N)ncnc21 metric_name="mean HPG incorporation" measured_result=28.2
compound=COc1cc(COc2cc(N)c(Cl)cc2C(=O)CCC2CCN(CCNS(C)(=O)=O)CC2)cc(OC)c1 metric_name="mean HPG incorporation" measured_result=58.1
compound="C[C@]12CC[C@@H]3c4ccc(O)cc4C[C@@H](CCCCCCCCC[S+]([O-])CCCC(F)(F)C(F)(F)F)[C@H]3[C@@H]1CC[C@@H]2O (stereo partly specified)" metric_name="mean HPG incorporation" measured_result=115
compound=CC(=O)O[C@@H]1C[C@H]2C(C)(C)C(=O)C=C[C@]2(C)[C@H]2CC[C@@]3(C)[C@H](c4ccoc4)OC(=O)[C@H]4O[C@]43[C@@]21C metric_name="mean HPG incorporation" measured_result=66.3
compound="CC1=C(/C=C/C(C)=C/C=C/C(C)=C/C(=O)Nc2ccc(O)cc2)C(C)(C)CCC1 [Fenretinide]" metric_name="mean HPG incorporation" measured_result=96.7
compound="O=[N+]([O-])c1ccccc1S(=O)(=O)NCC1CCC(CNCC2CCc3ccccc3C2)CC1 (stereo unspecified) [NTNCB hydrochloride]" metric_name="mean HPG incorporation" measured_result=56.8
compound=Cc1c(C)c2c(c(C)c1O)CC[C@](C)(CN1CCN(c3cc(N4CCCC4)nc(N4CCCC4)n3)CC1)O2 metric_name="mean HPG incorporation" measured_result=87.1
compound="Cc1ccc(NC(=O)c2ccc(CN3CCN(C)CC3)cc2)cc1Nc1nccc(-c2cccnc2)n1 [Imatinib (STI571)]" metric_name="mean HPG incorporation" measured_result=121
compound=CC(C)(C)c1nc(-c2cccc(NS(=O)(=O)c3c(F)cccc3F)c2F)c(-c2ccnc(N)n2)s1 metric_name="mean HPG incorporation" measured_result=106
compound=COc1cc2c(cc1C(F)(F)F)N(C(=O)Nc1cc(F)cc(-c3cccnc3)c1)CC2 metric_name="mean HPG incorporation" measured_result=74.3
compound=CCC(=O)CCCCC[C@@H]1NC(=O)[C@H]2CCCCN2C(=O)[C@H]([C@@H](C)CC)NC(=O)[C@H](Cc2cn(OC)c3ccccc23)NC1=O metric_name="mean HPG incorporation" measured_result=85
compound=CNC(=O)c1cccc(-c2ccc3c(N4CCOC[C@@H]4C)nc(N4CCOC[C@@H]4C)nc3n2)c1 metric_name="mean HPG incorporation" measured_result=34.8
compound=COc1cc(C)c(/C=C/C(C)=C/C=C/C(C)=C/C(=O)O)c(C)c1C metric_name="mean HPG incorporation" measured_result=87
